- SYSTEM_UNDER_TEST: BRM (Homo sapiens)
- Sequence (P51531 whole entry): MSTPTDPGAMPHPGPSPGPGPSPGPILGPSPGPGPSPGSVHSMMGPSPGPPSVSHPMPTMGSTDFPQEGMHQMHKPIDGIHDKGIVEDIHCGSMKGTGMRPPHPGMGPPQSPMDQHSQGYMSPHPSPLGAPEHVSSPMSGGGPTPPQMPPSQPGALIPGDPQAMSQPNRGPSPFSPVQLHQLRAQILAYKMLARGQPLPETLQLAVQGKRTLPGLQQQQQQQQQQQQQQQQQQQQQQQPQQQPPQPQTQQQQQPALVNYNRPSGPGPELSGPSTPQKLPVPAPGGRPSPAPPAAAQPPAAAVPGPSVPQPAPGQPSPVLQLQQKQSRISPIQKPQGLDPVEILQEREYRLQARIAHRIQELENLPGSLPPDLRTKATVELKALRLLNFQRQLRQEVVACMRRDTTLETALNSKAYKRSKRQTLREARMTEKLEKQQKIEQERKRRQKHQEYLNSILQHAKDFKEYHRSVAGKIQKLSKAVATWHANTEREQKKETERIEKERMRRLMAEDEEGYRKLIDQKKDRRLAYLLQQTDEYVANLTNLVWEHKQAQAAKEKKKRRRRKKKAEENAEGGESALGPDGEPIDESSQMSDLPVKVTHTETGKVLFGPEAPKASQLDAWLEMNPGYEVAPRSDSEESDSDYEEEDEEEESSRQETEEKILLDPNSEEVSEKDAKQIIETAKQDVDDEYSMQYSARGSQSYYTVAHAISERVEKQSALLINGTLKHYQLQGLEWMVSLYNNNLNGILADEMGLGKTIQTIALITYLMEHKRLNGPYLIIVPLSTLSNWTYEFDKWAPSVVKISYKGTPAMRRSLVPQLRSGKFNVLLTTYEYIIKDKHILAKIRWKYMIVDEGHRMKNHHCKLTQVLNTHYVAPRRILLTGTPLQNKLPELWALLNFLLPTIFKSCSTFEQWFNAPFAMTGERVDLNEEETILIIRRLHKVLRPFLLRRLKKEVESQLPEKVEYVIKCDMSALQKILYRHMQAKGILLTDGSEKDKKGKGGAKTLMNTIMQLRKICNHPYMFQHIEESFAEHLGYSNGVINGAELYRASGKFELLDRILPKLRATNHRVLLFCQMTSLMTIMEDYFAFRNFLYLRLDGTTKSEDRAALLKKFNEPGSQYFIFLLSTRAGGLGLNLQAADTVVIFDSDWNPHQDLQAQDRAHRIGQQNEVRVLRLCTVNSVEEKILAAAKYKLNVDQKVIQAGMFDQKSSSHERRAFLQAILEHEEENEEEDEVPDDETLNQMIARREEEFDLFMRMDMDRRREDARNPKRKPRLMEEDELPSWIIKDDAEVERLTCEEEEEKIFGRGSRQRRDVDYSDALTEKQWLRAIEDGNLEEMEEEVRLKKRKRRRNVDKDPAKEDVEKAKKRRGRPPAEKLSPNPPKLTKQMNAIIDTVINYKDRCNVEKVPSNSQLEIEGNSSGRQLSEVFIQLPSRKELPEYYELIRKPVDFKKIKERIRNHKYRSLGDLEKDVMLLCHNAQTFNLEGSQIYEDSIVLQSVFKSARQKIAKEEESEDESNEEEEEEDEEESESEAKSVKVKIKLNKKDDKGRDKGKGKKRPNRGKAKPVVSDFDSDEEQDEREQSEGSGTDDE
- ASSAY_NAME: ATPase catalytic activity assay (ADP-Glo), BRM
- EXPERIMENTAL_CONDITIONS: 30 nM BRM, 400 μM ATP
BRM Max % Inhibition below 90% gives Not met; BRM Max % Inhibition at or above it gives Met.

Would you please look over these solved cases?
C[C@@]1(C#N)COCc2ccc(C(=O)NCc3nccc(N4Cc5ccccc5C4)c3F)cc21 :: Met
C[C@@]1(F)COCc2ccc(C(=O)NCc3cc4nc(-c5ccnc(N6CCC6)n5)sc4cn3)cc21 :: Met
COc1nccc(-c2ccc3cnc(CNC(=O)c4ccc5c(c4)[C@](C)(C#N)COC5)cc3n2)c1F :: Met
C[C@@]1(F)COCc2ccc(C(=O)NCc3cc4nc(-c5cccc(N6CCCC6=O)n5)cnc4cn3)cc21 :: Met

Inquiry: Could you tell me if the measured BRM Max % Inhibition of `C[C@@]1(C#N)COCc2ccc(C(=O)NCc3cc([C@H]4C[C@@H](c5cccc(N6CCOCC6)n5)C4)ccn3)cc21` reaches 90% or more?
Reply text: Not met

---

# key: entry, value: IC50
- SYSTEM_UNDER_TEST: BRM (Homo sapiens)
- ASSAY_NAME: ATPase catalytic activity assay (ADP-Glo), BRM
- EXPERIMENTAL_CONDITIONS: BRM ATPase: IC50 (uM), 30 nM BRM, 400 μM ATP

Some solved cases for reference:
C[C@@]1(F)COCc2ccc(C(=O)NCc3cc4nc(-c5ccnc(N6CCC6)n5)sc4cn3)cc21 :: 0.1 to 0.5 µM
C[C@@]1(C#N)COCc2ccc(C(=O)NCc3cc([C@H]4C[C@H](c5cccc(N6CCOCC6)n5)C4)ccn3)cc21 :: 0.1 to 0.5 µM
C[C@@H](O)c1cccc(-c2ccc3cnc(CNC(=O)c4cnc5c(c4)[C@](C)(F)COC5)cc3n2)n1 :: 0.1 to 0.5 µM

Inquiry: Suppose we examine the molecule `C[C@@]1(C#N)COCc2ccc(C(=O)NCc3cc4nc(-c5ccnc(N6CC7CC(C6)O7)n5)ccc4cn3)cc21` ; what IC50 value has been reported?
Reply text: < 0.1 µM

Inquiry: Suppose we examine the molecule `CN(C)c1cccc(-c2ccc3cnc(CNC(=O)c4ccc5c(c4)[C@](C)(F)COC5)cc3n2)n1` ; what IC50 value has been reported?
Reply text: < 0.1 µM

Inquiry: Suppose we examine the molecule `COc1cncc(-c2ccc3nnc(CNC(=O)c4ccc5c(c4)[C@](C)(C#N)COC5)cc3c2)n1` ; what IC50 value has been reported?
Reply text: < 0.1 µM

Inquiry: Suppose we examine the molecule `C[C@@]1(C#N)COCc2ccc(C(=O)NCc3cc(C#Cc4ccccc4)ccn3)cc21` ; what IC50 value has been reported?
Reply text: 0.1 to 0.5 µM

Inquiry: Suppose we examine the molecule `C[C@@]1(C#N)COCc2ccc(C(=O)NCc3cc4cc(-c5nccc(N6CCC6)n5)ccc4cn3)cc21` ; what IC50 value has been reported?
Reply text: < 0.1 µM

Inquiry: Suppose we examine the molecule `C[C@@]1(F)COCc2ncc(C(=O)NCc3cc4nc(-c5cccc(N6CCC6)n5)cnc4cn3)cc21` ; what IC50 value has been reported?
Reply text: < 0.1 µM

Inquiry: Suppose we examine the molecule `C[C@@H]1CN(c2cccc([C@H]3C[C@@H](c4ccnc(CNC(=O)c5ccc6c(c5)[C@](C)(C#N)COC6)c4)C3)n2)C[C@H](C)O1` ; what IC50 value has been reported?
Reply text: 0.1 to 0.5 µM

Inquiry: Suppose we examine the molecule `CN1CCC(c2cccc(-c3ccc4cnc(CNC(=O)c5ccc6c(c5)[C@](C)(C#N)COC6)cc4n3)n2)CC1` ; what IC50 value has been reported?
Reply text: 0.1 to 0.5 µM

Inquiry: Suppose we examine the molecule `Cn1cccc(-c2ccc3cnc(CNC(=O)c4ccc5c(c4)[C@](C)(C#N)COC5)cc3n2)c1=O` ; what IC50 value has been reported?
Reply text: 0.1 to 0.5 µM

Inquiry: Suppose we examine the molecule `C[C@@]1(F)COCc2ncc(C(=O)NCc3cc4nc(-c5ccccc5)ccc4cn3)cc21` ; what IC50 value has been reported?
Reply text: 0.1 to 0.5 µM

Inquiry: Suppose we examine the molecule `C[C@@]1(C#N)COCc2ccc(C(=O)NCc3cc4nc(-c5ccnc(N6C[C@H]7C[C@@H]6CO7)n5)ccc4cn3)cc21` ; what IC50 value has been reported?
Reply text: < 0.1 µM

Inquiry: Suppose we examine the molecule `CN(C)c1cccc(-c2ccc3cnc(CNC(=O)c4ccc5c(c4)[C@](C)(C#N)COC5)cc3n2)n1` ; what IC50 value has been reported?
Reply text: < 0.1 µM

Inquiry: Suppose we examine the molecule `C[C@@]1(C#N)COCc2ccc(C(=O)NCc3cc4cc(-c5cncc(N6CCC6)n5)ccc4nn3)cc21` ; what IC50 value has been reported?
Reply text: < 0.1 µM

Inquiry: Suppose we examine the molecule `CN(C)c1ncc(-c2ccc3cnc(CNC(=O)c4ccc5c(c4)[C@](C)(C#N)COC5)cc3n2)cn1` ; what IC50 value has been reported?
Reply text: 0.1 to 0.5 µM

Inquiry: Suppose we examine the molecule `C[C@@]1(C#N)COCc2ccc(C(=O)NCc3cc4nc(-c5ccnc(N6CC7CC6C7)n5)ccc4cn3)cc21` ; what IC50 value has been reported?
Reply text: < 0.1 µM

Inquiry: Suppose we examine the molecule `C[C@@]1(F)COCc2ccc(C(=O)NCc3cc4nc(-c5cncc(N6CCC6)n5)ccc4cn3)cc21` ; what IC50 value has been reported?
Reply text: < 0.1 µM

Inquiry: Suppose we examine the molecule `C[C@@]1(F)COCc2ccc(C(=O)NCc3cc4nc(-c5ccc(=O)n(CC(F)F)n5)ccc4cn3)cc21` ; what IC50 value has been reported?
Reply text: 0.1 to 0.5 µM

Inquiry: Suppose we examine the molecule `CC1(c2nccc(-c3ccc4cnc(CNC(=O)c5ccc6c(c5)[C@](C)(C#N)COC6)cc4n3)n2)COC1` ; what IC50 value has been reported?
Reply text: 0.1 to 0.5 µM
